- Tgt: Epidermal growth factor receptor (Homo sapiens)
- Test description: Inhibitory concentration against EGF receptor by polyGAT phosphorylation
pIC50: −log10 of the molar value.
Binary classification by pIC50, with 5 as an inclusive lower bound for 1.0; all other cases are 0.0.

Smiles representation	Category label
N#C/C(=C\c1cc(O)c(O)c(CSc2nc3ccccc3s2)c1)C(N)=O	1.0

Problem: Check this compound for pIC50 at or above 5: `COc1cc(C=C(C#N)C#N)cc(CSc2ccccc2C(=O)O)c1O`
Solution: 0.0

Problem: Check this compound for pIC50 at or above 5: `COc1cc(C=C(C#N)C#N)cc(CSCC(=O)O)c1O`
Solution: 0.0

----------
# log10(IC50) values compiled below
- Tgt: Epidermal growth factor receptor (Homo sapiens)
- Test description: Inhibitory concentration against EGF receptor by autophosphorylation
Please keep in mind that the values are log10 of IC50 expressed in µM.

Smiles representation	log10(IC50)
COc1cc(/C=C(\C#N)C(N)=O)cc(CSc2nc3ccccc3o2)c1O	0.72

Problem: Give log10(IC50) (Epidermal growth factor receptor (Homo sapiens)) of the following molecule: `COc1cc(C=C(C#N)C#N)cc(CSc2ccccc2)c1O`
Solution: 0.83

Problem: Give log10(IC50) (Epidermal growth factor receptor (Homo sapiens)) of the following molecule: `COc1cc(C=C(C#N)C#N)cc(CS(=O)(=O)c2ccc(C)cc2)c1O`
Solution: 1.36

Problem: Give log10(IC50) (Epidermal growth factor receptor (Homo sapiens)) of the following molecule: `COc1cc(/C=C(\C#N)C(N)=O)cc(CSc2ccc3ccccc3c2)c1O`
Solution: 0.23

Problem: Give log10(IC50) (Epidermal growth factor receptor (Homo sapiens)) of the following molecule: `COc1cc(/C=C(\C#N)C(N)=O)cc(CSCc2ccccc2)c1O`
Solution: -0.05

Problem: Give log10(IC50) (Epidermal growth factor receptor (Homo sapiens)) of the following molecule: `COc1cc(C=C(C#N)C#N)cc(C)c1O`
Solution: 1.94

Problem: Give log10(IC50) (Epidermal growth factor receptor (Homo sapiens)) of the following molecule: `N#C/C(=C\c1cc(O)c(O)c(CSc2nc3ccccc3s2)c1)C(N)=O`
Solution: 0.51

Problem: Give log10(IC50) (Epidermal growth factor receptor (Homo sapiens)) of the following molecule: `COc1cc(C=C(C#N)C#N)cc(CSCC(=O)O)c1O`
Solution: 1.73

Problem: Give log10(IC50) (Epidermal growth factor receptor (Homo sapiens)) of the following molecule: `COc1cc(/C=C(\C#N)C(=O)c2ccc(O)c(O)c2)cc(CSCc2ccccc2)c1O`
Solution: 0.65

----------
- Tgt: Epidermal growth factor receptor (Homo sapiens, UniProt P00533)
- Sequence (P00533 whole entry): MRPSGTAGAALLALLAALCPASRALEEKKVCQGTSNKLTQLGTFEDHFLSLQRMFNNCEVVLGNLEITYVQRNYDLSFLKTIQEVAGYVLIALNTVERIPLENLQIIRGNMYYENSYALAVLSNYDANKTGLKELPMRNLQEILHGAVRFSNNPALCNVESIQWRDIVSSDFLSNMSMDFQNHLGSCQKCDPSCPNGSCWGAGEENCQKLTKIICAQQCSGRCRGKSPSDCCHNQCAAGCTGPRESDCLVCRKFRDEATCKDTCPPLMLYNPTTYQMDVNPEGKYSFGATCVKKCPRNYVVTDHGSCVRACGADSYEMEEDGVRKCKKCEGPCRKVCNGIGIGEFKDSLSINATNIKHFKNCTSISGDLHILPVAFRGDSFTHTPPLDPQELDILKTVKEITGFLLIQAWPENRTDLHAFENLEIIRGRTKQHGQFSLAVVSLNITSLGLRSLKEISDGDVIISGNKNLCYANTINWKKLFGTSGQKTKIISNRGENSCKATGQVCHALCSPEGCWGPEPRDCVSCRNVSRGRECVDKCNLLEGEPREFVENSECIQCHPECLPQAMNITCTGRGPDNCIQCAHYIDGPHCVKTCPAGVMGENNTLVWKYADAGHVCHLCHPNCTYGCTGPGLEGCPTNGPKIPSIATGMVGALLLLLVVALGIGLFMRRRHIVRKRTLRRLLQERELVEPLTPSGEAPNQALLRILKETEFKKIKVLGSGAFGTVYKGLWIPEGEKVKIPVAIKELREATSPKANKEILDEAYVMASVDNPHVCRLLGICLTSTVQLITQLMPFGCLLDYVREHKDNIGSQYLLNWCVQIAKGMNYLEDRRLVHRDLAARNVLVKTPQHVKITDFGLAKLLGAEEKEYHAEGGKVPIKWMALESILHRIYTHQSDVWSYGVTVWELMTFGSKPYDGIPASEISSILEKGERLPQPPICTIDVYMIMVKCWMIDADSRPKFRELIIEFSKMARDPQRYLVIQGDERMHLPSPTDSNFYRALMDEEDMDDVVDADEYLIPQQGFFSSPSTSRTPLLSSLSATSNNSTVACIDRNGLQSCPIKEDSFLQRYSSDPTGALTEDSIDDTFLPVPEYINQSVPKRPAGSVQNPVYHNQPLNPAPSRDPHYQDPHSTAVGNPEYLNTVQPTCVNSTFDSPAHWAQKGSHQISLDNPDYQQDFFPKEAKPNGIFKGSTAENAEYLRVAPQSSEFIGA
- Test description: Inhibitory concentration against EGF receptor by polyGAT phosphorylation
Property measured: IC50 (µM)
Respond with the bare value in µM.

# count of solved cases: 4
Smiles representation	IC50, µM
COc1cc(/C=C(\C#N)C(N)=O)cc(CSc2ccc(O)cc2)c1O	2.5
Cc1cc(C=C(C#N)C#N)cc(O)c1O	5.6
COc1cc(/C=C(\C#N)C(N)=O)cc(CSc2ccccc2)c1O	2.9
COc1cc(C=C(C#N)C#N)cc(C)c1O	2600

// moving on: another record for IC50
Problem: Requested field: IC50. Item: `COc1cc(/C=C(\C#N)C(N)=O)cc(CSc2nc3cc(Cl)ccc3s2)c1O`
Solution: 4.4
